# target-desc: Nav1.7 (or SCN9A) channel; HEK cells stably transfected with hSCN9A (Homo sapiens, UniProt Q15858)
# Construct: expressed in transfected cells
# Sequence (Q15858 whole entry): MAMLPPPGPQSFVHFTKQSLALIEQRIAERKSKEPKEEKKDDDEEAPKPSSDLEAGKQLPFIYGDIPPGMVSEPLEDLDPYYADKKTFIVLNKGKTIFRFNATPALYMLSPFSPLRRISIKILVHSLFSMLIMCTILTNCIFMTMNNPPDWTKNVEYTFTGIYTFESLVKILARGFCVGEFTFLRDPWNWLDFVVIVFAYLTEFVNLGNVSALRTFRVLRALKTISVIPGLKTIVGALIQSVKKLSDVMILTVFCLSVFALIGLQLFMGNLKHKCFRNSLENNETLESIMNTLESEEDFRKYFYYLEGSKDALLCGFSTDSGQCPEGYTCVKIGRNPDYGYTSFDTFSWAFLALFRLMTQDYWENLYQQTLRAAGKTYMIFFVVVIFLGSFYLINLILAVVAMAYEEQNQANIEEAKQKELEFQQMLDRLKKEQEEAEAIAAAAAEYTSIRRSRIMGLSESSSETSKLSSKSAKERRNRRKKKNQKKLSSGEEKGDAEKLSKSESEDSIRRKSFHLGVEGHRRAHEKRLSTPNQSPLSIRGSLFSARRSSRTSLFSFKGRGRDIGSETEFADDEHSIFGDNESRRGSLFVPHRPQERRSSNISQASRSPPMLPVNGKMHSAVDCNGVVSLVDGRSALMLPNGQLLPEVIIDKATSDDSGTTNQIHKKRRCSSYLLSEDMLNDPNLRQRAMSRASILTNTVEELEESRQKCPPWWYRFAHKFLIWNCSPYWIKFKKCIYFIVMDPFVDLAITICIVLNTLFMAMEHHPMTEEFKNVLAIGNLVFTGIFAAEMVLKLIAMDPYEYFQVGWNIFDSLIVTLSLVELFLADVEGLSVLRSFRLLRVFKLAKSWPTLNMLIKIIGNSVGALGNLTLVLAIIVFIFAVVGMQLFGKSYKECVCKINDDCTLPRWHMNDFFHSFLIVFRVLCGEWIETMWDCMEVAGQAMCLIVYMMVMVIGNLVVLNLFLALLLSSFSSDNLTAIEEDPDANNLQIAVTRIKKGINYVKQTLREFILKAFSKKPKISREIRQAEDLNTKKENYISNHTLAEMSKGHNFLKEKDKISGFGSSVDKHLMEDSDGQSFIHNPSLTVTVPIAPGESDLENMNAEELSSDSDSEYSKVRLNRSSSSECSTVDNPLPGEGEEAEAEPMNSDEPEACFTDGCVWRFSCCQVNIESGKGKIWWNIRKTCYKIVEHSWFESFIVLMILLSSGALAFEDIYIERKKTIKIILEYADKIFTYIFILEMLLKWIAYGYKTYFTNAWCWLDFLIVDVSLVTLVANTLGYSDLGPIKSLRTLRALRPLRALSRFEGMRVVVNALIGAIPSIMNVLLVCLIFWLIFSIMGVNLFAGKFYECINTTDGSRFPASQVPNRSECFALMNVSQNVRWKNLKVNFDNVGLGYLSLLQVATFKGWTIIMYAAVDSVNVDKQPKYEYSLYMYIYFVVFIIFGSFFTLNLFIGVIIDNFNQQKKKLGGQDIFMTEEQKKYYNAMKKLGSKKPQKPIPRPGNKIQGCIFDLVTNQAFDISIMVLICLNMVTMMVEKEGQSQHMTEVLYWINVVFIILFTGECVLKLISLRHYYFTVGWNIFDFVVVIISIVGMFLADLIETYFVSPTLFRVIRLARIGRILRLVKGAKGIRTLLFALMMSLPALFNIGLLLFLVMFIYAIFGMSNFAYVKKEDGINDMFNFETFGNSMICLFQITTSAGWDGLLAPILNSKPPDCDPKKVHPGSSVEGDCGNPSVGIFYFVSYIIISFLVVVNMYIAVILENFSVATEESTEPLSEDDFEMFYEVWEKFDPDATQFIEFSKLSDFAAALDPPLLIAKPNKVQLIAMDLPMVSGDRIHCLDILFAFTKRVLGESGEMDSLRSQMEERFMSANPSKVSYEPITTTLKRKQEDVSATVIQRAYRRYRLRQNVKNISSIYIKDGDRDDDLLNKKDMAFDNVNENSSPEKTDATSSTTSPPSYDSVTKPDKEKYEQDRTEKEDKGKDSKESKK
# method-notes: Nav1.7 block, PatchXpress 7000 automated whole-cell voltage clamp, estimated IC50 (EIC50)
# Type: cell-based
# measurement-conditions: estimated IC50; hSCN9A HEK cells, PatchXpress platform; Examples 283-814
Categories are defined by ranges of IC50, namely low: < 70 nM; middle: ≥ 70 nM and < 1000 nM; high: ≥ 1000 nM

Example entries and their recorded answers appear below.
> print(dat)
                                   compound   group
1  CCn1nc(C(F)(F)F)cc1-c1ccc(Oc2cc(F)c(S(=O)(=O)Nc3ccc(F)cn3)cc2Cl)cc1 [Example 404]    high
2  N#Cc1cc(S(=O)(=O)Nc2ncns2)ccc1Oc1ccc(Cl)cc1-c1ccnn1C(F)F [Example 510]  middle
3  N#Cc1cc(S(=O)(=O)Nc2nccs2)ccc1Oc1ccc(-c2ncccc2Cl)cc1 [Example 456]    high
4  N#Cc1cc(S(=O)(=O)Nc2ncc(I)s2)ccc1Oc1ccc(Cl)cc1-c1cn[nH]c1 [Example 582]     low
5  N#Cc1cc(S(=O)(=O)Nc2nccs2)ccc1Oc1ccc(F)cc1-c1cnn(CC(F)(F)F)c1 [Example 641]    high

# input Which category does the recorded IC50 put CC(=O)c1cccc(-c2cc(Cl)ccc2Oc2ccc(S(=O)(=O)Nc3ncns3)cc2C#N)c1 [Example 504] in?
# output low

# input Which category does the recorded IC50 put CCn1nc(C(F)(F)F)cc1-c1ccc(Oc2ccc(S(=O)(=O)Nc3cnsn3)cc2C#N)cc1 [Example 341] in?
# output high

# input Which category does the recorded IC50 put O=S(=O)(Nc1cscn1)c1cc(F)c(Oc2ccc(Cl)cc2C2CNC2)cc1F [Example 604] in?
# output middle

# input Which category does the recorded IC50 put COc1cc(-c2ccccc2Oc2ccc(S(=O)(=O)Nc3nccs3)cc2C#N)ccc1C#N [Example 703] in?
# output middle

# input Which category does the recorded IC50 put N#Cc1cc(S(=O)(=O)Nc2cscn2)ccc1Oc1ccc(Cl)cc1-c1cn[nH]c1 [Example 767] in?
# output middle

# input Which category does the recorded IC50 put Cn1nccc1-c1cc(C2CC2)ccc1Oc1ccc(S(=O)(=O)Nc2nccs2)cc1C#N [Example 545] in?
# output low

---

# target-desc: Nav1.7 (or SCN9A) channel; HEK cells stably transfected with hSCN9A (Homo sapiens, UniProt Q15858)
# Construct: expressed in transfected cells
# method-notes: Nav1.7 block, PatchXpress 7000 automated whole-cell voltage clamp, estimated IC50 (EIC50)
# Assay type: cell-based
# measurement-conditions: estimated IC50; hSCN9A HEK cells, PatchXpress platform; Examples 283-814
measured-metric: IC50 (nM)
Expressed in nM, but write only the number.

Solved cases below.
> print(dat)
                                 smiles.str  test.value
1  Cn1nccc1-c1cc(Cl)ccc1Oc1ccc(S(=O)(=O)Nc2ccncn2)cc1F         350
2  N#Cc1cc(S(=O)(=O)Nc2ncc(Cl)s2)ccc1Oc1ccc(OC(F)(F)F)cc1-c1cn[nH]c1          73
3  O=S(=O)(Nc1ncns1)c1ccc(Oc2ccc(Cl)cc2-c2ccn[nH]2)c(Cl)c1         7.5
4  Cn1nc(C(F)F)cc1-c1ccc(Oc2ccc(S(=O)(=O)Nc3nccs3)cc2C#N)cc1         310
5  Cn1cc(C(F)(F)F)nc1-c1ccc(Oc2ccc(S(=O)(=O)Nc3nccs3)cc2C#N)cc1        3300
6  O=S(=O)(Nc1cscn1)c1cc(Cl)c(Oc2ccc(Cl)cc2C2CCNCC2)cc1F          49
7  N#Cc1cccc(NS(=O)(=O)c2ccc(Oc3ccccc3-c3ccccc3)c(C#N)c2)n1       12000
8  O=S(=O)(Nc1ncns1)c1cc(F)c(Oc2cc(F)c(Cl)cc2-c2ccn[nH]2)cc1F         4.2

So for `O=S(=O)(Nc1ncns1)c1cc(F)c(Oc2ccc(C(F)(F)F)cc2-c2cnccn2)cc1F` , the logged IC50 turned out to be 100

So for `Cn1nccc1-c1cc(I)ccc1Oc1ccc(S(=O)(=O)Nc2nccs2)cc1C#N` , the logged IC50 turned out to be 17

So for `N#Cc1cc(S(=O)(=O)Nc2nccs2)ccc1Oc1ccc(-c2cc(C(F)(F)F)nn2CCCF)cc1F` , the logged IC50 turned out to be 71

So for `N#Cc1cc(S(=O)(=O)Nc2ncc(Cl)s2)ccc1Oc1ccc(Cl)cc1C1CCNCC1` , the logged IC50 turned out to be 35

So for `N#Cc1cc(S(=O)(=O)Nc2ccc(F)cn2)ccc1Oc1ccc(Cl)cc1-c1cn[nH]c1` , the logged IC50 turned out to be 730

So for `CCn1nc(C(F)(F)F)cc1-c1ccc(Oc2ccc(S(=O)(=O)Nc3ccon3)cc2C#N)cc1` , the logged IC50 turned out to be 2500
